- assayedTarget: Bromodomain-containing protein 4 (Homo sapiens)
- conditionLabel: Compound concentration 20.0 uM
Each entry falls into one class according to its ΔTm; the ranges are L (below -3 °C), M (-3 °C to below -1 °C), H (-1 °C or more)

Would you please look over these solved cases?
molecule: O=C(CCCCCCC(=O)Nc1ccc([C@H]2O[C@@H](CSc3nc(-c4ccccc4)c(-c4ccccc4)o3)C[C@@H](c3ccc(CO)cc3)O2)cc1)NO
answerLabel: M

molecule: Cc1ncsc1-c1ccc(CNC(=O)[C@@H]2C[C@@H](O)CN2C(=O)[C@@H](NC(=O)COCCOCCOCCNC(=O)C[C@@H]2N=C(c3ccc(Cl)cc3)c3c(sc(C)c3C)-n3c(C)nnc32)C(C)(C)C)cc1
answerLabel: H

molecule: O=C(CN1CCN(c2ccc(F)cn2)CC1)Nc1nc2c(s1)CCCC2
answerLabel: M

molecule: O=C1Nc2ccccc2C2(CCN(CC(Cc3ccccc3)Nc3nc4ccc(F)cc4s3)CC2)N1 (centres undefined)
answerLabel: L

molecule: COc1ccc2c(c1)OC(C)(C)C(c1ccccc1)C2c1ccc(OCCN2CCCC2)cc1 (centres undefined)
answerLabel: L

Query: Category of `Cc1[nH]nc(C(F)(F)F)c1Cc1sc2c(c1C(=O)N1C[C@](C)(O)CO1)c(=O)n(C)c(=O)n2C(C)C` :
Response: H

Query: Category of `CC(C)(C)OC(=O)Nc1ccc(CNc2nccc(Nc3cc(C(=O)OC(C)(C)C)[nH]n3)n2)cc1` :
Response: H

Query: Category of `C[C@H](Nc1cc(Cl)nc2c1cnn2[C@@H]1O[C@H](COP(=O)(O)CP(=O)(O)O)[C@@H](O)[C@H]1O)c1ccccc1F` :
Response: M

Query: Category of `COc1cccc(-c2nccc3c2CN(c2ccccc2)C3=O)c1` :
Response: M

Query: Category of `CNCC[C@@H](Oc1ccccc1C)c1ccccc1` :
Response: M
